These measurements were taken from paper PMC5027247.

target: OPTN L54Q (ITC sample) (human) (UniProt Q96CV9); assay: ITC; 25 °C; 50 mM Tris pH 7.5, 100 mM NaCl, 1 mM EDTA, 1 mM DTT; 1 mM TBK1 fragment in the syringe, 0.1 mM OPTN or NAP1 fragment in the cell; one-site binding model
property-measured: Kd
# number then unit; no other words

Briefly, Kd measured for TBK1 CTD (residues 677–729) (domain or fragment) YPSSNTLVEMTLGMKKLKEEMEGVVKELAENNHILERFGSLTMDGGLRNVDCL : 20 µM
